System: HCT-15 colon
experiment-summary: NCI tumour cell line growth inhibition, 48 h
quantity-name: TGI

q: Which value of TGI has been reported for c1cc(OCCN2CCCCCC2)ccc1CNc1ccc2nc(CCC3CCCCC3)[nH]c2c1 in the records?
a: 3.67 µM

q: Moving on to the next molecule: O=C1/C(=C\C(Cl)=C/c2ccc([N+](=O)[O-])cc2)SC(=S)N1CCc1ccc(O)cc1
a: 0.741 µM

q: Moving on to the next molecule: NNC(=O)c1ccccc1Nc1ccccc1C(=O)NN
a: > 100 µM

q: Moving on to the next molecule: NCC#CCNCCCN1CC1
a: > 100 µM

q: Moving on to the next molecule: O=S(=O)(N=S(c1ccc(Cl)cc1)c1ccc(Cl)cc1)c1ccccc1
a: > 100 µM

q: Moving on to the next molecule: O=c1[nH]c(-c2cccc(F)c2)nc2ccccc12
a: > 100 µM

* * *

Test system: SNB-75 CNS
experiment-summary: NCI tumour cell line growth inhibition, 48 h
quantity-name: TGI

q: Which value of TGI has been reported for O=C(CCN1CC2CCC(CC2)C1)c1cccs1 in the records?
a: 35 µM

q: Moving on to the next compound: CC(C)(C)[Si](C)(C)OCCCCC1CC2(S(=O)(=O)C3=CC=C=C=C3)ON1CC2S(=O)(=O)c1ccccc1 (centres undefined)
a: > 100 µM

q: Moving on to the next compound: N#CC(c1ccccc1)N1CCCN(C(C#N)c2ccccc2)C1c1ccccc1O (centres undefined)
a: > 100 µM

q: Moving on to the next compound: CCN(CC)CCOc1ccc(/C(=C(\C)Cc2ccc(OC)cc2)c2ccc(OC(=O)NCc3ccccc3)cc2)cc1
a: 8.48 µM

q: Moving on to the next compound: Cc1cn(C2CC(O)C(Cn3cc(Cn4ncc(=O)[nH]c4=O)nn3)O2)c(=O)[nH]c1=O (centres undefined)
a: > 100 µM

q: Moving on to the next compound: O=C(O)C(CSC(c1ccccc1)(c1ccccc1)c1ccccc1)N=Cc1cccs1 (centres undefined)
a: > 79.5 µM

q: Moving on to the next compound: CCOC(=O)C1CCn2c(nc3c2c(=O)n(C)c(=O)n3C)S1 (centres undefined)
a: > 100 µM

q: Moving on to the next compound: C=C1C(=O)O[C@@H]2C(=O)[C@@H](C)[C@@H]3C=CC(=O)[C@@]3(C)[C@@H](OC(=O)/C(C)=C\C)[C@H]12
a: 19.9 µM

q: Moving on to the next compound: O=c1c2ccccc2nc(-c2ccc(Br)cc2)n1NC1OC(CO)C(O)C(O)C1O (centres undefined)
a: > 100 µM

q: Moving on to the next compound: C=C[C@]1(C)CCC2=C(CCC3C2(C)CCC[C@]3(C)CO)C1 (some centres undefined)
a: > 100 µM

q: Moving on to the next compound: Cc1n[nH]c(=S)n1/N=C/c1ccc(F)c(Oc2ccccc2)c1
a: > 100 µM

q: Moving on to the next compound: O=C(O)C(Cc1c[nH]c2ccccc12)N=Cc1nc(-c2ccccc2)oc1O (centres undefined)
a: > 100 µM

q: Moving on to the next compound: CCC(C)OC(=O)C1C2CCC(O2)C1C(=O)O (centres undefined)
a: > 100 µM

q: Moving on to the next compound: c1cc(OCCN2CCCCCC2)ccc1CNc1ccc2nc(CCC3CCCCC3)[nH]c2c1
a: 4.52 µM

* * *

Tested on: UO-31 renal
experiment-summary: NCI tumour cell line growth inhibition, 48 h
For each entry below, report its TGI value.

q: Which value of TGI has been reported for C=C[C@]1(C)CCC2=C(CCC3C2(C)CCC[C@]3(C)CO)C1 (stereo not given in full) in the records?
a: > 100 µM

q: Moving on to the next compound: COc1ccc2c(c1)CCc1c(-c3noc4c3CCc3cc(OC)ccc3-4)noc1-2
a: > 100 µM

q: Moving on to the next compound: O=C1C(=O)N(C(=O)c2ccc(Cl)c(Cl)c2)c2ccc(Cl)cc21
a: > 100 µM

q: Moving on to the next compound: C=C1C[C@@H](O)[C@@H](Br)C(C)(C)[C@]12CCC(C)(Cl)C(Br)C2 (stereo not given in full)
a: > 100 µM

q: Moving on to the next compound: C=C(C)CC1=C(OCC)C(OC)(OCC)C1=O (stereo not given)
a: > 100 µM

q: Moving on to the next compound: C=CCNC(=S)N1c2ccccc2NC(=O)CC1C (stereo not given)
a: > 100 µM

q: Moving on to the next compound: OCC1NCC(O)C(O)C1O (stereo not given)
a: > 100 µM

q: Moving on to the next compound: O=C(C#CP(=O)(O)c1ccccc1)c1ccccc1
a: 4.14 µM

q: Moving on to the next compound: Cc1cccc2c(N=Nc3ccc(S(N)(=O)=O)cc3)c(O)[nH]c12
a: > 25 µM

q: Moving on to the next compound: C=CC1ON(C)CCc2cc(OC)c(OC)cc21 (stereo not given)
a: > 100 µM

q: Moving on to the next compound: COc1cccc2c(NNc3ccccc3)c3ccc([N+](=O)[O-])cc3nc12
a: 61 µM

q: Moving on to the next compound: Cc1ccc2c(c1)C(=O)C(Cc1ccccc1C(=O)O)C2 (stereo not given)
a: > 100 µM

q: Moving on to the next compound: CCC(C)C1NC(=O)C2CCCN2C(=O)C(CC2CO2)OC(=O)CCNC(=O)C(C)N(C)C(=O)C(C(C)C)N(C)C1=O (stereo not given)
a: 15 µM

q: Moving on to the next compound: ClCc1ccc(-c2ccc(Cn3cnc4c(Cl)nc(Cl)nc43)cc2)cc1
a: 8.18 µM

q: Moving on to the next compound: CCCCCCCC/C=C/CCCCCCCC1=NC(C)(C)CN1C(C)C
a: 2.81 µM

* * *

System: OVCAR-5 ovarian
experiment-summary: NCI tumour cell line growth inhibition, 48 h
quantity-name: TGI

q: Which value of TGI has been reported for NC(CNO)C(=O)O (stereo not drawn) in the records?
a: > 100 µM

q: Moving on to the next compound: O=C(O)C1NCCc2c1[nH]c1ccccc21 (stereo not drawn)
a: > 100 µM

q: Moving on to the next compound: CCOC(=O)C1CCn2c(nc3c2c(=O)n(C)c(=O)n3C)S1 (stereo not drawn)
a: > 100 µM

q: Moving on to the next compound: C=CC1ON(C)CCc2cc(OC)c(OC)cc21 (stereo not drawn)
a: > 100 µM

q: Moving on to the next compound: O=c1[nH]c(-c2cccc(F)c2)nc2ccccc12
a: > 100 µM

q: Moving on to the next compound: O=C1C2=Cc3ccccc3OC2(O)Oc2cc(O)ccc21 (stereo not drawn)
a: > 100 µM

q: Moving on to the next compound: O=C1c2cc3c(cc2-c2c1c1ccc(Cl)cc1c(=O)n2C[C@H](O)[C@@H](O)[C@H](O)CO)OCO3
a: 1.29 µM

q: Moving on to the next compound: O=C1c2cccnc2S(=O)N1Cc1ccccc1 (stereo not drawn)
a: > 100 µM

q: Moving on to the next compound: NC(=O)N/N=C(\C(=O)C(=O)Nc1ccc(Cl)c(C(F)(F)F)c1)c1nc2ccc(C(=O)c3ccccc3)cc2[nH]c1=O
a: > 100 µM

q: Moving on to the next compound: c1cc(OCCN2CCCCCC2)ccc1CNc1ccc2nc(CCC3CCCCC3)[nH]c2c1
a: 7.33 µM

q: Moving on to the next compound: CN=C1Nc2ccc(Cl)cc2C(c2ccccc2)=NN1C
a: > 100 µM

q: Moving on to the next compound: COc1ccc(CNc2nc3cc(C(F)(F)F)ccc3nc2C(=O)O)cc1OC
a: > 100 µM

q: Moving on to the next compound: O=CN1CCN(C(=O)c2cc(Cl)cc(Cl)c2)C1=S
a: 44.2 µM

* * *

For each entry below, report its TGI value.
Tested on: DU-145 prostate
experiment-summary: NCI tumour cell line growth inhibition, 48 h

q: Which value of TGI has been reported for CC(C)[Si](OC1=C(C(=O)Nc2ccccc2Cl)CCCCC1)(C(C)C)C(C)C in the records?
a: > 100 µM

q: Moving on to the next compound: COc1cccc2c(NNc3ccccc3)c3ccc([N+](=O)[O-])cc3nc12
a: > 100 µM

q: Moving on to the next compound: COC(=O)[C@@H]1C[C@H]([Se]c2ccccc2)CN1S(=O)(=O)c1ccc(C)cc1
a: > 100 µM

q: Moving on to the next compound: CC1(C)CC[C@]2(C(=O)O)CC[C@]3(C)C(=CC[C@@H]4[C@@]5(C)C[C@H](O)[C@H](O)[C@@](C)(CO)C5=CC[C@]43C)[C@@H]2C1
a: > 100 µM

q: Moving on to the next compound: CCOC(=O)c1c(-c2ccccc2)[n+](=O)c2ccc(Cl)cc2n1[O-]
a: 11.9 µM

q: Moving on to the next compound: NS(=O)(=O)c1ccc(NNc2c3ccccc3nc3ccccc23)cc1
a: 23.6 µM

q: Moving on to the next compound: O=C(C#CP(=O)(O)c1ccccc1)c1ccccc1
a: > 100 µM

q: Moving on to the next compound: C#CCN=C(N/N=C/c1ccc([N+](=O)[O-])o1)NS(=O)(=O)c1cc(C)c(Cl)cc1SCC(N)=O
a: 24.5 µM

q: Moving on to the next compound: COC(=O)C1C(O)CCC2CN3CCc4c([nH]c5cccc(OC)c45)C3CC21 (stereo unspecified)
a: > 100 µM

q: Moving on to the next compound: Nc1ncnc2c1ncn2C1C=CC(CP(=O)(O)O)C1 (stereo unspecified)
a: > 100 µM

q: Moving on to the next compound: Cc1n[nH]c(=S)n1/N=C/c1ccc(F)c(Oc2ccccc2)c1
a: > 100 µM

q: Moving on to the next compound: O=C(NC1CCC(=O)N1C(=O)OCc1ccccc1)OCc1ccccc1 (stereo unspecified)
a: > 100 µM

q: Moving on to the next compound: CN[C@]12CC3(C=CC(=O)C=C3)O[C@@]1(Cc1ccc(OC)cc1)N(C)C(=O)N2
a: 14.9 µM

q: Moving on to the next compound: COc1ccc(/C=C(\C#N)c2nc(N)nc(N3N=C(C)CC3(C)C)n2)c(O)c1
a: 37.7 µM

q: Moving on to the next compound: NCC#CCNCCCN1CC1
a: > 100 µM

q: Moving on to the next compound: COc1cc(/C=C/C(=O)c2ccc(Nc3ncnc4ccccc34)cc2)cc(OC)c1
a: 22.2 µM

q: Moving on to the next compound: CC(NC(=O)C(N)Cc1ccc(O)cn1)C(=O)O (stereo unspecified)
a: > 100 µM

q: Moving on to the next compound: NCCNc1nc(N2CCCC2)c2nc(Cl)c(NCc3ccccc3)nc2n1
a: 3.55 µM

q: Moving on to the next compound: C=CC1ON(C)CCc2cc(OC)c(OC)cc21 (stereo unspecified)
a: > 100 µM

q: Moving on to the next compound: Cc1cc(C)c(O)c(Cc2cccc(Cc3cc(C)cc(C)c3O)c2O)c1
a: > 100 µM

q: Moving on to the next compound: C[C@]12CCC(=O)C=C1CC[C@@H]1[C@@H]2CC[C@]2(C)C(=O)[C@H](n3ccnc3)C[C@@H]12
a: > 100 µM

q: Moving on to the next compound: O=C1c2ccccc2-c2nc3ccc(O)cc3n21
a: > 100 µM

q: Moving on to the next compound: Cc1cccc2c(N=Nc3ccc(S(N)(=O)=O)cc3)c(O)[nH]c12
a: > 25 µM

q: Moving on to the next compound: CCCc1cc2cc(-n3nc(C)c4c3CC(C)(C)CC4=O)cc(NC3CCC(O)CC3)c2c(=O)[nH]1 (stereo unspecified)
a: > 100 µM

q: Moving on to the next compound: Oc1ccc(CNCc2ccccc2)c2cccnc12
a: 38.4 µM

q: Moving on to the next compound: CC1(C)CCC2(C(=O)OC3OC(CO)C(O)C(O)C3O)CCC3(C)C(=CCC4C5(C)CCC(OC6OC(CO)C(O)C(O)C6O)C(C)(C)C5CCC43C)C2C1 (stereo unspecified)
a: > 25 µM

q: Moving on to the next compound: Cc1ccc2c(=O)cc(-c3cccc4ccccc34)[nH]c2n1
a: > 74.7 µM

q: Moving on to the next compound: O=C1CCCC2=C(N1)C(=O)C=CC2=O
a: 31.2 µM

q: Moving on to the next compound: O=C1C(=O)c2ccccc2-c2ccccc21
a: 3.07 µM

q: Moving on to the next compound: CC(=O)Nc1ccc(C(=O)NN2C(=O)C(Cl)C2c2cc(Br)ccc2O)cc1 (stereo unspecified)
a: > 100 µM

q: Moving on to the next compound: COc1ccc(CNc2nc3cc(C(F)(F)F)ccc3nc2C(=O)O)cc1OC
a: > 100 µM

q: Moving on to the next compound: COc1ccc(-c2nn(-c3cccc(NC(=O)Nc4ccc(Cl)c(C(F)(F)F)c4)c3)cc2-c2ccncc2)cc1Cl
a: > 100 µM

q: Moving on to the next compound: CCOC(=O)C(Cc1c2ccccc2cc2ccccc12)(NC(C)=O)C(=O)OCC
a: > 100 µM

q: Moving on to the next compound: CN(C)CCn1c(=O)c2ccc3c4c(nn3CCN(C)C)c3cc(N)ccc3n(c1=O)c24
a: 0.438 µM

q: Moving on to the next compound: CC(=O)O[C@H]1C(=O)O[C@@H]2C[C@H]3C(C)=CC(=O)[C@@H](O)[C@]3(C)[C@H]3[C@@]4(O)OC[C@]32[C@@H]1[C@@H](C)[C@H]4O
a: 0.176 µM

q: Moving on to the next compound: CC1(C)CC(=O)C2=C(C1)NC(SSC1=C(C#N)C(c3ccc(F)cc3)C3=C(CC(C)(C)CC3=O)N1)=C(C#N)C2c1ccc(F)cc1 (stereo unspecified)
a: 15 µg/mL
